# System: SK-MEL-28 melanoma
# experimentalProtocol: NCI tumour cell line growth inhibition, 48 h
endpoint: TGI

TGI recorded for this molecule, "Cc1cc(C)cc(NC(N)=S)c1" , is > 100 µM

TGI recorded for this molecule, CC(=O)Nc1ccc(C2SCc3nc4ccccc4n32)cc1 (configuration not stated) , is > 100 µM

====

# Tested on: MOLT-4 leukemia
# experimentalProtocol: NCI tumour cell line growth inhibition, 48 h
Reported TGI by item:

Examples from the recorded data:
>>> print(df.to_string())
                                   molecule       result
0  COC(C)(C)C/C=C/C(C)=C/C=C/C(C)=C\C=C\C(C)=C\C=C\C=C(C)\C=C\C=C(C)\C=C\C=C(C)\C=C\CC(C)(C)OC  > 150 µg/mL
1  C=CCC1C(=O)CC2(C)CC(=O)C(CC=C)C12C (centres undefined)     > 100 µM

The reported TGI value, MOLT-4 leukemia, for Cc1cn(CC2=NCC(C)N2)c(=O)[nH]c1=O (centres undefined) reads > 100 µM

The reported TGI value, MOLT-4 leukemia, for "Nc1nc2c3nc(Nc4ccccc4)sc3nc(=O)n2c2sc(Nc3ccccc3)nc12" reads > 100 µM

The reported TGI value, MOLT-4 leukemia, for COc1cc(C(O)(CC#N)c2cc3c(cc2Br)OCO3)cc(OC)c1OC (centres undefined) reads > 100 µM

====

# System: DU-145 prostate
# experimentalProtocol: NCI tumour cell line growth inhibition, 48 h
Reported TGI by item:

>>> print(df.to_string())
              compound     systemtested    result
0  COI1NC(=O)c2ccccc21  DU-145 prostate  > 100 µM

The reported TGI value, DU-145 prostate, for O=C(O)CN1C(=O)C(Cc2ccc(O)cc2)N=C(c2cccc(O)c2)c2ccccc21 (stereo unspecified) reads > 100 µM

The reported TGI value, DU-145 prostate, for CCC(C#N)NCc1cccc(CNC(C#N)CC)c1 (stereo unspecified) reads > 100 µM

The reported TGI value, DU-145 prostate, for COc1cc2c(cc1OC)C13CCN4CC5CCOC6CC(=O)N2C1C6C5CC43 (stereo unspecified) reads > 100 µM

The reported TGI value, DU-145 prostate, for "Cc1ccnc(NC(NC(=O)c2ccccc2)(C(F)(F)F)C(F)(F)F)c1" reads > 100 µM

The reported TGI value, DU-145 prostate, for "COc1cc2c(cc1OCCCC(=O)Nc1ccc3ccc4cccc5ccc1c3c45)N=C[C@@H]1CCCN1C2=O" reads < 0.01 µM

====

# Tested on: CCRF-CEM leukemia
# experimentalProtocol: NCI tumour cell line growth inhibition, 48 h; in the data active = GI50 below about 0.43 µM; inactive = the rest
# valid calls are Y (active), N (inactive); nothing else

// known answers, use as guide
molecule	systemTested	category
S=P(N1CC1)(N1CC1)N1CC1	CCRF-CEM leukemia	N
COc1cc2c(cc1OCCCC(=O)Nc1ccc3ccc4cccc5ccc1c3c45)N=C[C@@H]1CCCN1C2=O	CCRF-CEM leukemia	Y
CC(C)=CC1=C2C3=C(C(=O)C4(O)Oc5c(C)c6c7c(c5OC24C)[C@@H](C)CC[C@@H]7[C@@H](C)C[C@H]6C=C(C)C)C(C)CCC3C(C)C1 (stereo partly specified)	CCRF-CEM leukemia	N
Cc1ccc(O)c(NC(=O)c2ccc(CNc3ccnc(C(F)(F)F)c3)cc2)c1	CCRF-CEM leukemia	N

Query block: Any idea what this test logged for "COc1ccc(-c2ccc(-c3ccc(C(=N)N)o3)o2)cc1" ?
Result block: N

Query block: Any idea what this test logged for "OCC#Cc1ccccc1C#CCCCCCC#Cc1ccccc1C#CCO" ?
Result block: N

Value source: PubChem BioAssay (NCI)
